Listing of recorded Mean Specific Binding (dpm) ± S.E.M., NET by entry.
Biological target: Norepinephrine Transporter (NET) Sites in Mouse Brain (Mus musculus)
Sequence (O55192 whole entry): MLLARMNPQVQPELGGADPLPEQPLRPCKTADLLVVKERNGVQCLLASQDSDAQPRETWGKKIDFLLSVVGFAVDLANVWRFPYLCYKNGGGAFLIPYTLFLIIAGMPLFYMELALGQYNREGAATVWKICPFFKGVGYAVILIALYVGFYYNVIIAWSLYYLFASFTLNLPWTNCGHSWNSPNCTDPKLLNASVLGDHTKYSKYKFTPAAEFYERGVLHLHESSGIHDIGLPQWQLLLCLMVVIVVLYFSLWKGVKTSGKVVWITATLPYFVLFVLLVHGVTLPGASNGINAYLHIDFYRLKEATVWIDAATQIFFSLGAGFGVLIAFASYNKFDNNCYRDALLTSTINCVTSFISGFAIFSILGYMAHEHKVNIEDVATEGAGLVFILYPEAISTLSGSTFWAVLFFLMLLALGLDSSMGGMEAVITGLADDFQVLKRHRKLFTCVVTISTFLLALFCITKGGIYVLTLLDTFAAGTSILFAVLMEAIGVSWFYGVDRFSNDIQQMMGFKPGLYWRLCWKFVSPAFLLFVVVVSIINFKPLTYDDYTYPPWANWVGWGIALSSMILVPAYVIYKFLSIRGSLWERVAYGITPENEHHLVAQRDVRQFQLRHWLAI
Settings: 10 mg/kg, PO; mice sacrificed 60 minutes after treatment; cortex
The reply should be a number in dpm, with the unit left off.

Some molecules with known Mean Specific Binding (dpm) ± S.E.M., NET results, for comparison:
[[record]]
molecule = "CN(C)CC1(c2ccc(Cl)c(Cl)c2)CCC(C)(O)CC1 (centres unmarked)"
readout_unit = "dpm"
readout_number = 533

[[record]]
molecule = "CN(C)C[C@]1(c2ccc3ccccc3c2)CC[C@](C)(O)CC1"
readout_unit = "dpm"
readout_number = 393

[[record]]
molecule = "CNCC1(c2ccc(Cl)c(Cl)c2)CCC(C)(O)CC1 (centres unmarked)"
readout_unit = "dpm"
readout_number = 1553

[[record]]
molecule = "CNC(C)C1(c2ccc(Cl)c(Cl)c2)CCCCC1.Cl (single isomer, unassigned) [48 E1, hydrochloride]"
readout_unit = "dpm"
readout_number = 954


Now consider the entry below.
So, CC(N(C)C)C1(c2ccc3ccccc3c2)CCCCC1 (single isomer, unassigned) [56 E1] ? Its Mean Specific Binding (dpm) ± S.E.M., NET was 106
